- protocol-description: physchem
- measurement-parameters: 37 °C, pH 6.8, fassgf or other biorelevant, thermodynamic from solid, Solubility JP2 (pH 6.8), 20 hr
assay-endpoint: solubility (µg/mL)
Your answer should be a plain number; it is taken to be in µg/mL.

Respond only with solubility recorded for C=CCN1CC(=O)N2[C@@H](Cc3ccc(OP(=O)([O-])[O-])cc3)C(=O)N(Cc3ccc(F)cc3F)C[C@@H]2N1C(=O)NCc1ccccc1.[Na+].[Na+]
2270

Respond only with solubility recorded for CN(C)c1cc(F)ccc1CN1C[C@H]2N(C(=O)CN(C)N2C(=O)NCc2ccccc2)[C@@H](Cc2ccc(OP(=O)(O)O)cc2)C1=O
2000

Respond only with solubility recorded for CN1CC(=O)N2[C@@H](Cc3ccc(OP(=O)([O-])[O-])cc3)C(=O)N(Cc3ccc(F)cc3F)C[C@@H]2N1C(=O)NCc1ccccc1.[Na+].[Na+]
2030

Respond only with solubility recorded for CN1CC(=O)N2[C@@H](Cc3ccc(OP(=O)(O)O)cc3)C(=O)N(Cc3cccc4cnn(C)c34)C[C@@H]2N1C(=O)NCc1ccccc1
1760

---

Give solubility for every item shown.
- protocol-description: physchem
- measurement-parameters: 37 °C, pH 6.8, fassgf or other biorelevant, thermodynamic from solid, Solubility JP2 (pH 6.8), 0 hr
Give your result as the value with the unit written after it.

Respond only with solubility recorded for CN(C)c1cc(F)c(F)cc1CN1C[C@H]2N(C(=O)CN(C)N2C(=O)NCc2ccccc2)[C@@H](Cc2ccc(OP(=O)([O-])[O-])cc2)C1=O.[Na+].[Na+] [Compound 10]
2030 µg/mL

Respond only with solubility recorded for C=CCN1CC(=O)N2[C@@H](Cc3ccc(OP(=O)([O-])[O-])cc3)C(=O)N(Cc3ccc(Cl)c4cccnc34)C[C@@H]2N1C(=O)NCc1ccccc1.[Na+].[Na+] [Compound 7]
2140 µg/mL

Respond only with solubility recorded for CN(C)c1cc(CN2C[C@H]3N(C(=O)CN(C)N3C(=O)NCc3ccccc3)[C@@H](Cc3ccc(OP(=O)([O-])[O-])cc3)C2=O)ccc1Cl.[Na+].[Na+] [Compound 11]
1640 µg/mL

Respond only with solubility recorded for C=CCN1CC(=O)N2[C@@H](Cc3ccc(OP(=O)([O-])[O-])cc3)C(=O)N(Cc3ccc(F)cc3F)C[C@@H]2N1C(=O)NCc1ccccc1.[Na+].[Na+] [Compound 8]
2300 µg/mL

Respond only with solubility recorded for C=CCN1CC(=O)N2[C@@H](Cc3ccc(OP(=O)([O-])[O-])cc3)C(=O)N(Cc3cccc4cccnc34)C[C@@H]2N1C(=O)NCc1ccccc1.[Na+].[Na+] [Compound 6]
1830 µg/mL

Respond only with solubility recorded for CN1CC(=O)N2[C@@H](Cc3ccc(OP(=O)([O-])[O-])cc3)C(=O)N(Cc3cccc4cccnc34)C[C@@H]2N1C(=O)NCc1ccccc1.[Na+].[Na+] [Compound 9]
2320 µg/mL

Respond only with solubility recorded for CN1CC(=O)N2[C@@H](Cc3ccc(OP(=O)(O)O)cc3)C(=O)N(Cc3cccc4cnn(C)c34)C[C@@H]2N1C(=O)NCc1ccccc1 [Compound 5]
1760 µg/mL

Respond only with solubility recorded for CN1CC(=O)N2[C@@H](Cc3ccc(OP(=O)([O-])[O-])cc3)C(=O)N(Cc3ccc(F)cc3F)C[C@@H]2N1C(=O)NCc1ccccc1.[Na+].[Na+] [Compound 4]
1980 µg/mL

Respond only with solubility recorded for CN(C)c1cc(F)ccc1CN1C[C@H]2N(C(=O)CN(C)N2C(=O)NCc2ccccc2)[C@@H](Cc2ccc(OP(=O)(O)O)cc2)C1=O [Compound 3]
1320 µg/mL
